tested on: 777334-354-R2-J4-PDC tumor spheroids with HUVEC/MSC, viability; experiment: Anticancer human tumor 777334-354-R2-J4-PDC patient-derived pancreatic adenocarcinoma cell line growth inhibition [GQUAD]; details: second compound 10 µM; first compound 0.0316 µM; active compounds read low;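 note: spheroids exposed to compounds for 7 days before readout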

>  <COMPOUND>
COc1ncnc(C2CC2)c1-c1ncc2cnn(Cc3ccc(-c4nc(C(F)(F)F)cn4C(C)C)cc3)c2n1 + CN(C)c1ccc(Nc2c3ccc(NC(=O)CCN4CCCC4)cc3nc3cc(NC(=O)CCN4CCCC4)ccc23)cc1

>  <TARGET DESC>
777334-354-R2-J4-PDC tumor spheroids with HUVEC/MSC, viability;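 note: spheroids exposed to compounds for 7 days before readout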

>  <viability, T/C>
81.2%

$$$$
>  <COMPOUND>
CC(C)n1c(=O)n(C)c2cnc3cc(F)c(-c4ccc(OCCCN5CCCCC5)nc4)cc3c21 + CN(C)c1ccc(Nc2c3ccc(NC(=O)CCN4CCCC4)cc3nc3cc(NC(=O)CCN4CCCC4)ccc23)cc1

>  <TARGET DESC>
777334-354-R2-J4-PDC tumor spheroids with HUVEC/MSC, viability;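 note: spheroids exposed to compounds for 7 days before readout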

>  <viability, T/C>
81.5%

$$$$
>  <COMPOUND>
COc1cc(C2c3cc4c(cc3C(OC3OC5COC(C)OC5C(O)C3O)C3COC(=O)C23)OCO4)cc(OC)c1O (stereo not given) + CN(C)c1ccc(Nc2c3ccc(NC(=O)CCN4CCCC4)cc3nc3cc(NC(=O)CCN4CCCC4)ccc23)cc1

>  <TARGET DESC>
777334-354-R2-J4-PDC tumor spheroids with HUVEC/MSC, viability;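 note: spheroids exposed to compounds for 7 days before readout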

>  <viability, T/C>
79%

$$$$
>  <COMPOUND>
CCCS(=O)(=O)Nc1ccc(F)c(C(=O)c2c[nH]c3ncc(-c4ccc(Cl)cc4)cc23)c1F + Cc1[nH]c2ccc(F)cc2c1-c1nc2c3cccnc3c3ncccc3c2[nH]1

>  <TARGET DESC>
777334-354-R2-J4-PDC tumor spheroids with HUVEC/MSC, viability;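 note: spheroids exposed to compounds for 7 days before readout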

>  <viability, T/C>
44.3%

$$$$
>  <COMPOUND>
CC1COCCN1c1cc(-c2ccnn2C)c2ccnc(-c3ccn[nH]3)c2n1 (stereo not given) + Cc1cnc(CNC(=O)c2c(=O)c3ccc(N4CCCN(C)CC4)nc3n3c2sc2ccccc23)cn1

>  <TARGET DESC>
777334-354-R2-J4-PDC tumor spheroids with HUVEC/MSC, viability;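 note: spheroids exposed to compounds for 7 days before readout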

>  <viability, T/C>
42.8%

$$$$
